Test: qHTS assay to identify small molecule agonists of the estrogen related receptor (ERR) signaling pathway from Tox21 library (AID 1224849); note: nearly all actives have a fitted effect of over 15% in size
Settings: ERR reporter cell line, ONE-Glo luciferase, 18 h; at 92.4 µM (top of the series)
Protocol: National Center for Advancing Translational Sciences [NCATS] NIH Chemical Genomics Center [NCGC] U.S. Environmental Protection Agency [EPA] National Institutes of Environmental Health Sciences [NIEHS] National Toxicology Program [NTP] […] The ERR cells were dispensed at 2,000 cells/5 ul/well in 1536-well white plates using a Multidrop dispenser. […] After 30-minute incubation at room temperature, the luminescence intensity in the plates was measured using a ViewLux plate reader.
Active and inactive are the calls of the source. Calls come from the whole dose curve.
Allowed answers: active, inactive

Known results for molecules:
* O=C(O)c1cc(-c2ccccc2)nc2ccccc12 | active
* O=S(=O)(O)CCS | inactive

## Input Query: recorded result category for CC1(C)O[C@@H]2C[C@H]3[C@@H]4C[C@H](F)C5=CC(=O)CC[C@]5(C)[C@H]4[C@@H](O)C[C@]3(C)[C@]2(C(=O)CO)O1 in this test
## Output inactive

## Input Moving on to CS(=O)(=O)Nc1ccc([N+](=O)[O-])cc1Oc1ccccc1
## Output inactive

## Input Entry Cc1cc(O)c2c(c1)C(=O)c1cc(O)cc(O)c1C2=O please
## Output inactive

---

System: thyroid hormone receptor (rat, GH3 cells)
Test: qHTS assay to identify small molecule agonists of the thyroid receptor (TR) signaling pathway (AID 743066)
Conditions: GH3.TRE-Luc cells, TR agonist luciferase, 24 h; series mostly up to 83.9 µM
Records with an inconclusive call do not appear. Calls of active or inactive are those of the source. Calls follow the shape of the full dose curve.
measured_attribute: outcome

Look over these answered cases.
- C[C@@H](O)[C@H]1C(=O)N2C(C(=O)O)=C(S[C@@H]3CN[C@H](C(=O)N(C)C)C3)[C@H](C)[C@H]12: inactive
- CS(=O)(=O)Nc1ccc([N+](=O)[O-])cc1Oc1ccccc1: inactive
- NCCNCCNCCNCCN: inactive
- CCCCNC(N)=O: inactive
- OCCOCCOCCOCCO: inactive

## Input Fill in: outcome of CCCCCCCCCCCCOCC1CO1 (configuration not stated) is ___
## Output inactive

## Input Follow-up item: O=C(O)c1ccc([N+](=O)[O-])cc1
## Output inactive

---

Assay: Caspase-3/7 induction in HepG2 cells by small molecules, qHTS cell viability counter screen (AID 1346981); note: nearly all actives have a fitted effect of over 30% in size
Conditions: CellTiter-Fluor fluorescence, 17 h; series mostly up to 92.4 µM
Inconclusive results are not listed. The source made the active and inactive calls. Calls come from the whole dose curve; as a rule, active = well fitted cell-killing curve with a large enough effect in the repeat runs; inconclusive = weak or mixed curves, or effect the other way; inactive = flat fitted curve, though single readings scatter.
Please reply with one of these outcomes: active, inactive

Worked cases, answers included:
- CC(C)(C)C1CCC(O)CC1 (centres undefined): inactive
- CC1CC(OC(=O)c2ccccc2O)CC(C)(C)C1 (centres undefined): inactive
- CC(C)(C)C(=O)C1C(=O)c2ccccc2C1=O: active

## Input Could you check what this test reported for OCC1CCCO1 (centres undefined) ?
## Output inactive

## Input Now give it for OC[C@@H](O)[C@@H](O)[C@H](O)[C@@H](O)CO too.
## Output inactive

## Input Consider next the molecule CN(C)c1cccc(O)c1 in the same way.
## Output inactive

## Input // next record CC(C)(N=C=O)c1cccc(C(C)(C)N=C=O)c1
## Output inactive

## Input Consider next the molecule Nc1nc2ncc(CNc3ccc(C(=O)N[C@@H](CCC(=O)O)C(=O)O)cc3)nc2c(=O)[nH]1 in the same way.
## Output inactive
